- Test system: C6 glioma
- procedure-details: Dose response (percent survival) in C6 glioma cell cultures
- Type: cell-based, rat
- condition: Rattus norvegicus, C6 glioma, 96 h, C6 glioma cells, 4 days of treatment, percent survival
Structures can show the parent of a compound that is named as a salt.
Mark YES for EC50 under 6 µM, NO if at or over.

>>> print(df.to_string())
                                   compound  discrete_label
0  COc1ccncc1-c1ccc(CC2c3cc4c(cc3CCN2C(=O)OC(C)(C)C)OCO4)cc1 (centres unmarked)             YES
1  COc1cc2c(cc1OC)C(Cc1ccc(-c3ccncc3)cc1)NCC2 (centres unmarked) [Compound 4, hydrochloride salt]              NO
2  COc1cc2c(cc1OC)C(Cc1ccc(-c3ccncc3OC)cc1)NCC2 (centres unmarked) [Compound 12, hydrochloride salt]              NO
3  COc1cc2c(cc1OC)C(Cc1ccc(-c3cnccc3OC)cc1)N(C)CC2 (centres unmarked) [Compound 23, hydrochloride]             YES
4  COc1cc2c(cc1OC)C(Cc1ccc(-c3ccccc3NC(C)=O)cc1)NCC2.Cl (centres unmarked) [Compound 18, hydrochloride salt]              NO
5  COc1cc2c(cc1OC)C(Cc1ccc(-c3cccnc3OC)cc1)N(C(=O)OC(C)(C)C)CC2 (centres unmarked)             YES
6  COc1cc2c(cc1OC)C(Cc1ccc(-c3ccccc3NC(C)=O)cc1)N(C(=O)OC(C)(C)C)CC2 (centres unmarked)              NO
7  COc1cc2c(cc1OC)C(Cc1ccc(-c3cncnc3)cc1)NCC2.Cl (centres unmarked) [Compound 29, hydrochloride]              NO
8  COc1cc2c(cc1OC)C(Cc1ccc(-c3ccncc3OC)cc1)N(C(=O)OC(C)(C)C)CC2 (centres unmarked)             YES

* * *

- Tested on: C6 glioma
- procedure-details: Dose response (percent survival) in C6 glioma cell cultures
- Format: cell-based, rat
- condition: C6 glioma cells, 4 days of treatment, percent survival; listed as drawing 27
property-name: EC50

                                   compound  assayed_system  meas_value
0  COc1cc2c(cc1OC)C(Cc1ccc(-c3cccnc3OC)cc1)N(C)CC2 (stereo not shown) [Compound 9]       C6 glioma      5.5 µM

* * *

- System: C6 glioma
- procedure-details: Dose response (percent survival) in C6 glioma cell cultures
- Format: cell-based, rat
- condition: Rattus norvegicus, C6 glioma, 96 h, C6 glioma cells, 4 days of treatment, percent survival
Counter-ions that a name gives are not always drawn.
Mark T for EC50 under 3 µM, F if at or over.

In [3]: df
Out[3]:
                                   molecule  discrete_label
0  Clc1ccncc1-c1ccc(CC2NCCc3cc4c(cc32)OCO4)cc1 (centres unmarked) [Compound 42, dihydrochloride salt]               T
1  COc1cc2c(cc1OC)C(Cc1ccc(-c3cccnc3Cl)cc1)NCC2 (centres unmarked) [Compound 32, hydrochloride]               T
2  COc1cc2c(cc1OC)C(Cc1ccc(-c3cncnc3)cc1)N(C(=O)OC(C)(C)C)CC2 (centres unmarked)               F
3  COc1cc2c(cc1OC)C(Cc1ccc(-c3cccnc3Cl)cc1)N(C(=O)OC(C)(C)C)CC2 (centres unmarked)               F
4  CC(C)(C)OC(=O)N1CCc2cc3c(cc2C1Cc1ccc(-c2cnccc2Cl)cc1)OCO3 (centres unmarked)               F
5  COc1cc2c(cc1OC)C(Cc1ccc(-c3cnccc3OC)cc1)NCC2.Cl (centres unmarked)               T
6  COc1cc2c(cc1OC)C(Cc1ccc(-c3ccccc3NS(C)(=O)=O)cc1)NCC2 (centres unmarked) [Compound 15, hydrochloride salt]               F
7  COc1cc2c(cc1OC)C(Cc1ccc(-c3cccnc3OC)cc1)NCC2 (centres unmarked) [Compound 7, hydrochloride salt]               T

* * *

- Tested on: C6 glioma
- procedure-details: Dose response (percent survival) in C6 glioma cell cultures
- Format: cell-based, rat
- condition: Rattus norvegicus, C6 glioma, 96 h, C6 glioma cells, 4 days of treatment, percent survival
- Description: 6,7-Dimethoxy-1-[4-(4-methoxypyridin-3-yl)benzyl]-1,2,3,4-tetrahydroisoquinolinehydrochloride (EDL-291) was synthesized as described herein in the laboratory of Dr. Duane D. Miller at The University of Tennessee Health Science Center. […] EDL291 was dissolved completely to make a […] stock solution and diluted to produce a series of concentrations. […] The cells were fixed with 4% paraformaldehyde, stained with 0.1% Cresylecth violet stain, and quantitated. […]
Structures can show the parent of a compound that is named as a salt.
# reported EC50; entries follow
property-name: EC50 (µM)

>>> print(df.to_string())
                                   compound  meas_value
0  COc1ncc(-c2ccc(CC3c4cc(OC)c(OC)cc4CCN3C(=O)OC(C)(C)C)cc2)c(OC)n1 (stereo not shown)         6.8
1  COc1cc2c(cc1OC)C(Cc1ccc(-c3ccccc3NS(C)(=O)=O)cc1)N(C(=O)OC(C)(C)C)CC2 (stereo not shown)         6.2
2  COc1ncc(-c2ccc(CC3NCCc4cc(OC)c(OC)cc43)cc2)c(OC)n1 (stereo not shown) [Compound 26, hydrochloride]         9.3
3  COc1ccncc1-c1ccc(CC2NCCc3cc4c(cc32)OCO4)cc1 (stereo not shown) [Compound 45, dihydrochloride salt]         1.3
